assay: Tested for acute toxicity which is the single dose given intraperitoneally that will kill one-half of the mice within 5 days; type: organism-based; conditions: mouse, in vivo, ip
The following molecules are listed with their measured LD50 at 120 h values.
Experimental Endpoint: LD50 at 120 h (mg/kg)

Molecule: CC1=CC(=O)c2ccccc2C1=O [MENADIONE]
Units Symbol: mg/kg
Number: 150
//
Molecule: COC1=C(Cl)C(=O)c2ccccc2C1=O
Units Symbol: mg/kg
Number: 14
//
Molecule: CCOC1=C(Cl)C(=O)c2ccccc2C1=O
Units Symbol: mg/kg
Number: 16
//
Molecule: O=C1C(=O)c2ccccc2C(O)=C1C1CCCC1
Units Symbol: mg/kg
Number: 400
